test: Stability in Simulated Gastric Fluid (SGF); format: in vitro ADME; parameters: key: % parent compound remaining relative to 0-minute sample; conditions: simulated gastric fluid, at 1 h
readout: SGF (% remaining)

1: CC(C)OCCn1c(SCOC(=O)N(C)c2ccccc2F)nc(=O)c2[nH]ccc21
2: Cc1cccc(N(C)C(=O)OCn2c(=O)c3c(ccn3COC(=O)N(C)c3cccc(C)c3)n(CCOC(C)C)c2=S)c1
// max by SGF over [ 1 , 2 ] Refer to your chosen entry by its label in the reply.
1

----------
experiment: Caco-2 Permeability Assay; type: in vitro ADME, human; conditions: human, Caco-2, pH 7.4, Caco-2 monolayer
readout: Papp at 90 min, 10 µM (×10⁻⁶ cm/s)

Sample answers from the record:
>>> reported_value("C=CCCN(C)C(=O)OCSc1nc(=O)c2c(ccn2COC(=O)N(C)CCC=C)n1CCOC(C)C.O=C(O)C(F)(F)F [Example 180]")
25.9
>>> reported_value("CSCC[C@H](NC(=O)OC(C)(C)C)C(=O)OCCCCC(=O)OCn1ccc2c1c(=O)[nH]c(=S)n2CCOC(C)C [Example 352]")
2.03
>>> reported_value("CCCCN(C)C(=O)OCSc1nc(=O)c2[nH]ccc2n1CCOC(C)C.O=C(O)C(F)(F)F [Example 160]")
15.8
>>> reported_value("CC(C)OCCn1c(=S)[nH]c(=O)c2c1ccn2COC(=O)CCCCNC(=O)CNC(=O)OC(C)(C)C [Example 13]")
1.88
>>> reported_value("CSCC[C@H](NC(=O)OC(C)(C)C)C(=O)NCCCCC(=O)OCn1ccc2c1c(=O)[nH]c(=S)n2CCOC(C)C [Example 28]")
6.7
>>> reported_value("CSCC[C@H](N)C(=O)NCCCCC(=O)OCn1ccc2c1c(=O)[nH]c(=S)n2CCOC(C)C.O=C(O)C(F)(F)F [Example 31]")
0.325
>>> reported_value("CC(C)OCCn1c(=S)[nH]c(=O)c2c1ccn2COC(=O)CCCOC(=O)[C@H](N)Cc1ccccc1.O=C(O)C(F)(F)F [Example 362]")
5.12
>>> reported_value("CC(C)OCCn1c(=S)[nH]c(=O)c2c1ccn2COC(=O)CCCCNC(=O)CN(C)C(=O)OC(C)(C)C.O=C(O)C(F)(F)F [Example 53]")
3.43
>>> reported_value("CC(C)OCCn1c(SCOC(=O)CCCOC(=O)[C@H](N)C(C)C)nc(=O)c2c1ccn2COC(=O)CCCOC(=O)[C@H](N)C(C)C.O=C(O)C(F)(F)F.O=C(O)C(F)(F)F [Example 358]")
1.78
>>> reported_value("CC[C@H](C)[C@H](N)C(=O)NCCC(=O)OCn1ccc2c1c(=O)[nH]c(=S)n2CCOC(C)C.O=C(O)C(F)(F)F [Example 38]")
0.31

A: CC(C)OCCn1c(=S)[nH]c(=O)c2c1ccn2COC(=O)CCCOC(=O)[C@H](NC(=O)OC(C)(C)C)C(C)C [Example 355]
B: CC[C@H](C)[C@H](NC(=O)OC(C)(C)C)C(=O)NCCCCC(=O)OCn1ccc2c1c(=O)[nH]c(=S)n2CCOC(C)C [Example 33]
C: CSCC[C@H](NC(=O)OC(C)(C)C)C(=O)NCCC(=O)OCn1ccc2c1c(=O)[nH]c(=S)n2CCOC(C)C [Example 29]
Endpoint returns the given compounds ordered by ascending Papp at 90 min, 10 µM. Record the ranking as a list of labels in the requested order.
A, C, B
